test system: CAKI-1 renal; assay: NCI-60 one-dose screen, 48 h (100 = growth as untreated, 0 = no growth, -100 = all killed); settings: 10 µM
This is part of a sample that, as a whole, favours compounds with a hit. Of some 83,000 tested, about 20% had one in any assay.
measured_parameter: growth (%)
Note: unit % is implicit; provide only the numeric part.

Check out these entries, answers already filled in.
CAKI-1 renal data for `C=CCn1c(C)nc2cc(Nc3nc(Nc4ccc5nc(C)n(CC=C)c5c4)c4ccccc4n3)ccc21` ; its growth: -86.4

CAKI-1 renal data for `Cc1cccc2c1O/C(=C\c1ncc([N+](=O)[O-])n1C)C2=O` ; its growth: -29.7

CAKI-1 renal data for `O=C(N/N=C/c1ccccc1O)c1ccccc1` ; its growth: 7.12

CAKI-1 renal data for CN1/C(=C\C(I)C(I)C2=[N+](C)c3ccccc3C2(C)C)C(C)(C)c2ccccc21 (stereo not given) ; its growth: 21.5

CAKI-1 renal data for CCCCOCC(=O)NC(NP(=O)(N(C)C)N(C)C)C(Cl)(Cl)Cl (stereo not given) ; its growth: 92.3

CAKI-1 renal data for `COc1ccc(-c2nc(-c3nc4ccc(C)cc4[nH]3)c3ccccn23)cc1` ; its growth: 46.9

New cases:
CAKI-1 renal data for `CCN(CC)CCOC(=O)c1ccc(N=Nc2ccc(O)c(OC)c2)cc1` ; its growth: 97.4

CAKI-1 renal data for CC(C)C(C)C(N)C(=O)O (stereo not given) ; its growth: 99

CAKI-1 renal data for Nc1ccc(C2=CC(c3ccc(Cl)cc3)N3C=CSC3=N2)cc1 (stereo not given) ; its growth: -19.5

CAKI-1 renal data for `C[C@]12CC[C@H]3[C@@H](CC=C4C[C@@H](O)CC[C@@]43C)[C@@H]1CC[C@@H]2C(=O)C/C=N/O` ; its growth: 83.2

----------
System: NCI-H322M lung
Assay: NCI-60 one-dose screen, 48 h (100 = growth as untreated, 0 = no growth, -100 = all killed)
Details: 10 µM
Method: Growth inhibition of the NCI-H322M human Non-Small Cell Lung tumor cell line is measured as a screen for anti-cancer activity. Cells are grown in 96 well plates and exposed to the test compound for 48 hours. Compounds are tested at a single concentration, which is 10^-5 M for most compounds. The reported endpoint is percent growth (GI% or GIPRCNT), where numbers from 0 - 100% represent growth inhibition, and numbers from -100% - 0 represent cell death. […]
The panel holds about 83,000 compounds, 20% with a hit somewhere; the sample as a whole holds those more often.
Consider the following compounds and their measured growth readings.
Note: unit % is implicit; provide only the numeric part.

growth reported for this compound `CCN(CC)CCOC(=O)c1ccc(NC(=O)Nc2cccc(Cl)c2)cc1` : 103

growth reported for this compound `O=C(N/N=C\c1cc(Cl)ccc1O)c1ccncc1` : 59.5

growth reported for this compound `Cc1nc2cc(-n3c(-c4ccc(F)cc4)nc4ccccc4c3=O)ccc2n1Cc1ccccc1` : 38.2

growth reported for this compound `COc1ccc(-c2cc(=O)n(-c3nc4ccccc4[nH]3)[nH]2)cc1OC` : 66.6

growth reported for this compound `CCCCc1ccc(NC(=O)N(CCCl)N=O)cc1` : 96.8

----------
test system: CCRF-CEM leukemia; test: NCI-60 one-dose screen, 48 h (100 = growth as untreated, 0 = no growth, -100 = all killed); conditions: 10 µM
About 83,000 compounds went through this panel and 20% of them were active in at least one assay; those are over-represented in the sample as a whole.
measured_parameter: growth (%)
Note: unit % is implicit; provide only the numeric part.

Check out these entries, answers already filled in.
growth reported for this compound `C=CCn1ccc(=O)nc1SC` : 104

growth reported for this compound `COc1cc(/C=C/C(=O)c2cc(-c3ccccc3)ccc2O)cc(OC)c1OC` : 8.52

growth reported for this compound `O=C(Nc1cccc([N+](=O)[O-])c1)NN1CCCCCC1` : 86.1

New cases:
growth reported for this compound CCN1CCOC1C(C)C (configuration not stated) : 103

growth reported for this compound `CCCCCCCCCCCCCC[n+]1ccc(C)cc1` : -35.4

growth reported for this compound `CCOC(=O)Nc1ccc2c(c1)C(=O)N(CC)c1ccccc1O2` : 13.5

growth reported for this compound `CCN1CCN(c2ccc(Nc3ncnc4c3nnn4CCc3cc(OC)cc(OC)c3)cc2)CC1` : 86.4

growth reported for this compound `O=NN(CCCl)C(=O)NCc1ccc(-c2ccc(CNC(=O)N(CCCl)N=O)cc2)cc1` : 93.3
